system: Acinetobacter baumannii; experiment: Antimicrobial activity against carbapenem-resistant Acinetobacter baumannii isolate A2 by Etest method; assay type: functional
outcome measure: MIC

Solved entries (count: 3):
CO[C@H]1/C=C/O[C@@]2(C)Oc3c(C)c(O)c4c(O)c(c(/C=N/N5CCN(C)CC5)c(O)c4c3C2=O)NC(=O)/C(C)=C\C=C\[C@H](C)[C@H](O)[C@@H](C)[C@@H](O)[C@@H](C)[C@H](OC(C)=O)[C@@H]1C    8 µg/mL
C[C@@H](O)[C@H]1C(=O)N2C(C(=O)O)=C(S[C@@H]3CN[C@H](C(=O)N(C)C)C3)[C@H](C)[C@H]12    6 µg/mL
C[C@@H](O)[C@H]1C(=O)N2C(C(=O)O)=C(SCCNC=N)C[C@H]12 [IMIPENEM ANHYDROUS]    4 µg/mL

Let us move to another entry and its MIC.
Give its MIC value. Item: CC(C)(O/N=C(\C(=O)N[C@@H]1C(=O)N2C(C(=O)[O-])=C(C[n+]3ccccc3)CS[C@H]12)c1csc(N)n1)C(=O)O
128 µg/mL

----------
Below, each entry is listed alongside its reported MIC.
system: Acinetobacter baumannii; test: Antimicrobial activity against bla OXA-66 gene-deficient Acinetobacter baumannii isolate A2 by Etest method; type: functional
I only need the number, in µg/mL, no unit after it.

C[C@@H](O)[C@H]1C(=O)N2C(C(=O)O)=C(SCCNC=N)C[C@H]12 [IMIPENEM ANHYDROUS]    0.5

What measured MIC is associated with CO[C@H]1/C=C/O[C@@]2(C)Oc3c(C)c(O)c4c(O)c(c(/C=N/N5CCN(C)CC5)c(O)c4c3C2=O)NC(=O)/C(C)=C\C=C\[C@H](C)[C@H](O)[C@@H](C)[C@@H](O)[C@@H](C)[C@H](OC(C)=O)[C@@H]1C on Acinetobacter baumannii?
128

Same lookup for C[C@@H](O)[C@H]1C(=O)N2C(C(=O)O)=C(S[C@@H]3CN[C@H](C(=O)N(C)C)C3)[C@H](C)[C@H]12 , please.
0.5

Same lookup for CC(C)(O/N=C(\C(=O)N[C@@H]1C(=O)N2C(C(=O)[O-])=C(C[n+]3ccccc3)CS[C@H]12)c1csc(N)n1)C(=O)O , please.
128
